Molecular target: T1, recombinant human LAG3 expressed with a C-terminal mouse IgG2a mFc tag (human)
T1 construct: Called dimeric; also called hLAG3-mFc; hLAG3 dimer
T1 chain: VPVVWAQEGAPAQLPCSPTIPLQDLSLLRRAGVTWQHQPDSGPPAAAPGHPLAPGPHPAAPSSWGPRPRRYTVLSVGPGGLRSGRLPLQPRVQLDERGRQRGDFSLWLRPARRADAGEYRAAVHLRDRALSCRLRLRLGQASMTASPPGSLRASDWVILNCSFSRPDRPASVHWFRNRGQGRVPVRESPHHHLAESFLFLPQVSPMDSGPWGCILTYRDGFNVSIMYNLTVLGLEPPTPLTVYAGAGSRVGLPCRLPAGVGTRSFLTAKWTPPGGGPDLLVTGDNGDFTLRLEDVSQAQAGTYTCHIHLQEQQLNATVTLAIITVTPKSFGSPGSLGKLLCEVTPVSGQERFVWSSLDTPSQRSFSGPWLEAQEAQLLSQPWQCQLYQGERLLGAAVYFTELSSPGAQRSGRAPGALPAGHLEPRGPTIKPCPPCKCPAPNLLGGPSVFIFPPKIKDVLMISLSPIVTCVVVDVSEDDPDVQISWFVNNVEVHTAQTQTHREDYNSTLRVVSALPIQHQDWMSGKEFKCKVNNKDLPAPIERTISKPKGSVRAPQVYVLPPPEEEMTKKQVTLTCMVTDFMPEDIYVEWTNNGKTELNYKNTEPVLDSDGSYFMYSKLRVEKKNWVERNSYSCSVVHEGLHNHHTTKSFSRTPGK
Experiment: SPR, mAb captured, 37 C
RECORDED_METRIC: Kd (nM)
Respond numerically; units are nM and should not be typed.

Check the records and state Kd for H4H15483P (antibody, human IgG4, V domains shown, H4H = human IgG4 Fc with S108P hinge mutation) VH: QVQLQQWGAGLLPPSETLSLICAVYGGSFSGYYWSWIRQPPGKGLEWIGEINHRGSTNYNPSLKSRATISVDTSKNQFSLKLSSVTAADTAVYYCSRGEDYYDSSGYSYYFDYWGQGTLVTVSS VL: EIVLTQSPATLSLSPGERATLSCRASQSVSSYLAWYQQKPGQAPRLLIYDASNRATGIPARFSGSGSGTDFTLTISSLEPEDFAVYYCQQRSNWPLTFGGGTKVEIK
0.215
